System: human colon cancer SW480 cells
PROCEDURE SUMMARY: Inhibitory action on the proliferation of SW480 cells
Format: cell-based
CONDITION LABEL: 48 hours, TetraColor ONE
From the text: The action of the phenanthroindolizidine alkaloid compound of the present invention on the proliferation of human colon cancer SW480 cells, HT-29 cells, and human non-small cell lung cancer A549 cells was studied. […] After culturing, the number of viable cells was counted using TetraColor ONE (Seikagaku Corporation) in accordance with the attached operating procedure. […]
Record form. Attribute: SW480 proliferation inhibitory action IC50. Fill in for each entry.

Below are worked cases with known answers.
>  <COMPOUND>
COc1cc2c3c(c4ccc(OC(=O)C(C)(C)C)cc4c2cc1OC)[C@H](O)[C@@H]1CCCN1C3.Cl [Compound 10]

>  <REPORTED VALUE>
0.73 ng/mL

$$$$
>  <COMPOUND>
COC(=O)CCC(=O)Oc1ccc2c3c(c4cc(OC)c(OC)cc4c2c1)CN1CCC[C@H]1[C@H]3O.Cl [Compound 16]

>  <REPORTED VALUE>
0.76 ng/mL

$$$$
>  <COMPOUND>
COc1cc2c3c(c4ccc(OC(C)=O)cc4c2cc1OC)C[C@@H]1CCCN1C3.Cl [Compound 34]

>  <REPORTED VALUE>
0.042 ng/mL

$$$$
>  <COMPOUND>
C#CCOC(=O)Oc1ccc2c3c(c4cc(OC)c(OC)cc4c2c1)CN1CCC[C@H]1[C@H]3O.Cl [Compound 27]

>  <REPORTED VALUE>
0.66 ng/mL

$$$$

Below: the item to evaluate.
Given item COc1cc2c3c(c4ccc(OC(=O)c5ccsc5)cc4c2cc1OC)[C@H](O)[C@@H]1CCCN1C3.Cl [Compound 23] , the value recorded as its SW480 proliferation inhibitory action IC50 is 3.1 ng/mL

###

Record form. Attribute: IC50. Fill in for each entry.
Test system: SV40 promoter
PROCEDURE SUMMARY: SV40 promoter activity, luciferase assay in SW480/SV40-Luc cells
Format: cell-based, human
CONDITION LABEL: Homo sapiens, SW480, read-out: SV40 promoter inhibitory activity IC50

>  <CHEMICAL STRUCTURE>
COc1cc2c3c(c4ccccc4c2cc1OC)[C@H](O)[C@@H]1CCCN1C3.Cl

>  <STUDY SYSTEM>
SV40 promoter

>  <IC50>
> 1 µg/mL

$$$$
>  <CHEMICAL STRUCTURE>
COc1cc2c3c(c4ccc(N)cc4c2cc1OC)C[C@@H]1CCCN1C3.CS(=O)(=O)O

>  <STUDY SYSTEM>
SV40 promoter

>  <IC50>
> 0.01 µg/mL

$$$$
>  <CHEMICAL STRUCTURE>
COc1cc2c3c(c4ccc(NC(=O)OCC(C)C)cc4c2cc1OC)C[C@@H]1CCCN1C3.Cl

>  <STUDY SYSTEM>
SV40 promoter

>  <IC50>
> 10 µg/mL

$$$$
>  <CHEMICAL STRUCTURE>
COc1cc2c3c(c4ccccc4c2cc1OC)C[C@@H]1CCCN1C3.CS(=O)(=O)O

>  <STUDY SYSTEM>
SV40 promoter

>  <IC50>
> 10 µg/mL

$$$$
>  <CHEMICAL STRUCTURE>
COc1cc2c3c(c4ccc(NC(C)=O)cc4c2cc1OC)C[C@@H]1CCCN1C3.CS(=O)(=O)O

>  <STUDY SYSTEM>
SV40 promoter

>  <IC50>
> 0.01 µg/mL

$$$$
>  <CHEMICAL STRUCTURE>
COc1cc2c3c(c4cc(O)ccc4c2cc1OC)[C@H](O)[C@@H]1CCCN1C3.Cl

>  <STUDY SYSTEM>
SV40 promoter

>  <IC50>
> 1 µg/mL

$$$$
>  <CHEMICAL STRUCTURE>
CCc1ccc2c3c(c4cc(OC)c(OC)cc4c2c1)CN1CCC[C@H]1C3.Cl

>  <STUDY SYSTEM>
SV40 promoter

>  <IC50>
> 10 µg/mL

$$$$
>  <CHEMICAL STRUCTURE>
COc1cc2c3c(c4ccc(F)cc4c2cc1OC)C[C@@H]1CCCN1C3.Cl

>  <STUDY SYSTEM>
SV40 promoter

>  <IC50>
> 1 µg/mL

$$$$

Batch request: IC50 for each of the following compounds.
1. COc1cc2c3c(c4ccc(NC(=O)OCC(C)C)cc4c2cc1OC)C[C@@H]1CCCN1C3.CS(=O)(=O)O
2. COc1cc2c3c(c4cccc(O)c4c2cc1OC)[C@H](O)[C@@H]1CCCN1C3.Cl
3. CCc1ccc2c3c(c4cc(OC)c(OC)cc4c2c1)CN1CCC[C@H]1[C@H]3O.Cl

Result:
> 10 µg/mL
> 1 µg/mL
> 10 µg/mL

Batch request: IC50 for each of the following compounds.
1. COc1cc2c3c(c4cccc(O)c4c2cc1OC)[C@H](O)[C@@H]1CCCN1C3.CS(=O)(=O)O
2. CCc1ccc2c3c(c4cc(OC)c(OC)cc4c2c1)CN1CCC[C@@H]1[C@@H]3O.Cl
3. COc1cc2c3c(c4ccc(F)cc4c2cc1OC)[C@@H](O)[C@H]1CCCN1C3.Cl
4. COc1cc2c3c(c4cc(O)ccc4c2cc1OC)C[C@@H]1CCCN1C3.Cl
5. COc1cc2c3c(c4cccc(O)c4c2cc1OC)C[C@@H]1CCCN1C3.Cl

Result:
["> 1 µg/mL", "> 10 µg/mL", "> 10 µg/mL", "> 0.1 µg/mL", "> 1 µg/mL"]
